Tested on: E13 (patient-derived glioblastoma stem cells of classical subtype)
assaySummary: surviving fraction (nuclei count normalised to DMSO); higher = more cells surviving (less toxic);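 note: nuclei counted by high-content imaging of Hoechst-stained cells in laminin-coated 384-well plates, relative to 0.1% DMSO vehicle wells, with staurosporine as cell-death control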
protocolConditions: 111.1 nM; exposure time: 72 h
propertyLabel: surviving fraction
Give bare numbers.

// known answers, use as guide
[
  {
    "molecule": "O=C(/C=C\\n1cnc(-c2cc(C(F)(F)F)cc(C(F)(F)F)c2)n1)NNc1cnccn1 [Selinexor]",
    "reading": 0.355
  },
  {
    "molecule": "NC(=O)c1cccc2cn(-c3ccc([C@@H]4CCCNC4)cc3)nc12 [Niraparib]",
    "reading": 0.857
  },
  {
    "molecule": "Cc1ccc(S(=O)(=O)/C=C/C#N)cc1 [Bay 11-7082]",
    "reading": 0.988
  },
  {
    "molecule": "CC(=O)[C@]1(O)Cc2c(O)c3c(c(O)c2[C@@H](O[C@H]2C[C@H](N)[C@H](O)[C@H](C)O2)C1)C(=O)c1ccccc1C3=O [Idarubicin]",
    "reading": 0.25
  },
  {
    "molecule": "OC[C@H]1NC[C@H](O)[C@@H](O)[C@@H]1O [1-Deoxynojirimycin]",
    "reading": 0.99
  }
]

Each molecule below has a reported value. Please supply its surviving fraction.
1. S=c1[nH]cnc2nc[nH]c12 [Mercaptopurine]
2. CO[C@H]1C(=O)[C@]2(C)[C@@H](OC)C[C@H]3OC[C@@]3(OC(C)=O)[C@H]2[C@H](OC(=O)c2ccccc2)[C@]2(O)C[C@H](OC(=O)[C@H](O)[C@@H](NC(=O)OC(C)(C)C)c3ccccc3)C(C)=C1C2(C)C [Cabazitaxel]
3. C[C@H](Cc1cc2c(c(C(N)=O)c1)N(CCCO)CC2)NCCOc1ccccc1OCC(F)(F)F [Silodosin]
4. CN1C(=O)OC(C)(C)C1=O [Trimethadione]
5. CC(C)C[C@@H](C(=O)N[C@H](C(=O)OC1CCCC1)c1ccccc1)[C@H](O)C(=O)NO [Tosedostat]
6. Nc1ccn([C@@H]2O[C@H](CO)[C@@H](O)[C@@H]2O)c(=O)n1 [Cytarabine]
7. Cc1cccn2c(=O)c(-c3nnn[nH]3)cnc12 [Pemirolast potassium]

1.04
0.265
0.899
0.943
1.01
0.645
1.04

Each molecule below has a reported value. Please supply its surviving fraction.
1. O=C(CCBr)N1CCN(C(=O)CCBr)CC1 [Pipobroman]
2. Cc1[nH]nc(C(F)(F)F)c1Cc1sc2c(c1C(=O)N1C[C@](C)(O)CO1)c(=O)n(C)c(=O)n2C(C)C [AZD3965]
3. CN1C(=O)[C@@]23C[C@]4([C@]56C[C@@]78SS[C@@](CO)(C(=O)N7[C@H]5Nc5ccccc56)N(C)C8=O)c5ccccc5N[C@@H]4N2C(=O)[C@]1(CO)SS3 [Chaetocin]
4. COc1ccc(/C=C\c2cc(OC)c(OC)c(OC)c2)cc1OP(=O)(O)O [Fosbretabulin Disodium]
5. Nc1ccn([C@H]2CC[C@@H](CO)O2)c(=O)n1 [Zalcitabine]
6. CC(C)(C)C1CCN(C(=O)n2ncc(C(O)(c3ccccc3)c3ccccc3)n2)CC1 [ML211]

1. 0.921
2. 0.875
3. 0.0323
4. 0.241
5. 0.953
6. 0.985

###

Would you mind telling me the reported surviving fraction of each entry?
Tested on: E34 (patient-derived glioblastoma stem cells of proneural subtype)
assaySummary: surviving fraction (nuclei count normalised to DMSO); higher = more cells surviving (less toxic)
protocolConditions: 4.1 nM; exposure time: 72 h

Each compound below has a reported value. Please supply its surviving fraction.
1. O=C1c2c(O)ccc(O)c2C(=O)c2c(NCCNCCO)ccc(NCCNCCO)c21
2. COc1cc(/C=C/C(=O)N2CCC=CC2=O)cc(OC)c1OC

1: 0.578; 2: 0.873
